Values compiled from patent US11739120B2.

# ASSAY INFO: Approximate solubility of Compound I-1-Acid in different solvents (manual dilution, visual observation)
# Format: physicochemical
# CONDITION SET: Water; room temperature
Residues, ends and D or L forms follow the SMILES beside them. *: point of attachment. Palmitoyl = CCCCCCCCCCCCCCCC(=O)*
ENDPOINT LABEL: solubility

Q) Using the record for CCCCCCCCCCCCCCCC(=O)N1CCC[C@H]1C(=O)N1CCC[C@H]1C(=O)NCC(=O)N[C@@H](Cc1ccc(O)cc1)C(=O)O [Compound I-1-Acid] (Palmitoyl-PPGY-OH) , report its solubility.
A) < 1000 µg/mL

###

# ASSAY INFO: Approximate solubility of Compound I-1 (amorphous) in different solvents (manual dilution, visual observation)
# Assay type: physicochemical
# CONDITION SET: Methanol:H2O (3:1), ambient laboratory temperature
Residues, ends and D or L forms follow the SMILES beside them. *: point of attachment. Palmitoyl = CCCCCCCCCCCCCCCC(=O)*
ENDPOINT LABEL: solubility

Q) Sample CCCCCCCCCCCCCCCC(=O)N1CCC[C@H]1C(=O)N1CCC[C@H]1C(=O)NCC(=O)N[C@@H](Cc1ccc(O)cc1)C(=O)[O-].[Na+] [Compound I-1 (Amorphous)] (Palmitoyl-PPGY-OH) — what was its solubility?
A) > 100 mg/mL
